Field: viability, T/C. Provide a value for each of the compounds that follow.
Tested on: 922993-354-T-J3-PDC complex spheroids, viability;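 further: spheroids exposed to compounds for seven days; 100% = DMSO vehicle control viability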
Test: Anticancer human tumor 922993-354-T-J3-PDC patient-derived endometrial carcinoma cell line growth inhibition [GQUAD]
Settings: second compound 3.16 µM; first compound 1 µM; hits give low values
Numbers only, in %.

See these solved cases before continuing.
compound	system under test	reported metric	value observed
COc1cc(C2c3cc4c(cc3C(OC3OC5COC(C)OC5C(O)C3O)C3COC(=O)C23)OCO4)cc(OC)c1O (stereo not given) + Cc1cnc(CNC(=O)c2c(=O)c3ccc(N4CCCN(C)CC4)nc3n3c2sc2ccccc23)cn1	922993-354-T-J3-PDC complex spheroids, viability	viability, T/C	46.6
COc1cc(C2c3cc4c(cc3C(OC3OC5COC(C)OC5C(O)C3O)C3COC(=O)C23)OCO4)cc(OC)c1O (stereo not given) + CN(C)c1ccc(Nc2c3ccc(NC(=O)CCN4CCCC4)cc3nc3cc(NC(=O)CCN4CCCC4)ccc23)cc1	922993-354-T-J3-PDC complex spheroids, viability	viability, T/C	98.5
CC1COCCN1c1cc(-c2ccnn2C)c2ccnc(-c3ccn[nH]3)c2n1 (stereo not given) + CN(C)c1ccc(Nc2c3ccc(NC(=O)CCN4CCCC4)cc3nc3cc(NC(=O)CCN4CCCC4)ccc23)cc1	922993-354-T-J3-PDC complex spheroids, viability	viability, T/C	18.2

Record viability, T/C for all entries; do not skip any.
1. O=c1[nH]cc(F)c(=O)[nH]1 + CN(C)c1ccc(Nc2c3ccc(NC(=O)CCN4CCCC4)cc3nc3cc(NC(=O)CCN4CCCC4)ccc23)cc1
2. COc1ncnc(C2CC2)c1-c1ncc2cnn(Cc3ccc(-c4nc(C(F)(F)F)cn4C(C)C)cc3)c2n1 + Cc1[nH]c2ccc(F)cc2c1-c1nc2c3cccnc3c3ncccc3c2[nH]1
3. CC1COCCN1c1cc(C2(S(C)(=N)=O)CC2)nc(-c2ccnc3[nH]ccc23)n1 (stereo not given) + CN(C)c1ccc(Nc2c3ccc(NC(=O)CCN4CCCC4)cc3nc3cc(NC(=O)CCN4CCCC4)ccc23)cc1
4. C=CCn1c(=O)c2cnc(Nc3ccc(N4CCN(C)CC4)cc3)nc2n1-c1cccc(C(C)(C)O)n1 + Cc1cnc(CNC(=O)c2c(=O)c3ccc(N4CCCN(C)CC4)nc3n3c2sc2ccccc23)cn1
5. CC(=O)O[C@H]1C(=O)[C@@]2(C)[C@H]([C@H](OC(=O)c3ccccc3)[C@]3(O)C[C@H](OC(=O)[C@H](O)[C@@H](NC(=O)c4ccccc4)c4ccccc4)C(C)=C1C3(C)C)[C@]1(OC(C)=O)CO[C@@H]1C[C@@H]2O + Cc1cnc(CNC(=O)c2c(=O)c3ccc(N4CCCN(C)CC4)nc3n3c2sc2ccccc23)cn1
6. COc1ccc([C@@H](O)c2cc(-c3ncnc4cc(N5CCOCC5)ccc34)c(F)cc2Cl)nn1 + Cc1[nH]c2ccc(F)cc2c1-c1nc2c3cccnc3c3ncccc3c2[nH]1

Result:
98.2
124
115
41.4
45.1
103

Query C=CCn1c(=O)c2cnc(Nc3ccc(N4CCN(C)CC4)cc3)nc2n1-c1cccc(C(C)(C)O)n1 + Cc1[nH]c2ccc(F)cc2c1-c1nc2c3cccnc3c3ncccc3c2[nH]1 on 922993-354-T-J3-PDC complex spheroids, viability; viability, T/C returned: 107
